assay: molar heat capacity at constant pressure; details: 339.65 K; 101.33 kPa; Liquid; Small sample (50 mg) DSC
Assign molar heat capacity at constant pressure to each entry below.
One number for each entry, in J/K/mol.

Parameter requested: molar heat capacity at constant pressure. Apply to each item below.
1. NCCN
2. NCCCCCCN
3. NCCCCCCCCCN
4. NCCCCCCCN
5. NCCCCN

Result string:
176.3
304.67
403.32
338.66
240.91

Query string: Consider the compound shown here: `NCCCN` What is its recorded molar heat capacity at constant pressure?
Result string: 208.38

* * *

experiment: molar heat capacity at constant pressure; settings: 309.65 K; 101.33 kPa; Liquid; Small sample (50 mg) DSC
measurement type: molar heat capacity at constant pressure (J/K/mol)
Give bare numbers, in J/K/mol.

For orientation, consider the following solved cases.
Query string: Would you kindly share the measured molar heat capacity at constant pressure for `NCCCCCCCN` ?
Result string: 333.67

Query string: Sample `NCCCCN` — what was its molar heat capacity at constant pressure?
Result string: 237.56

Query string: # lookup: molar heat capacity at constant pressure of `NCCCN`
Result string: 204.87

Now look at this entry.
Query string: Name the reported molar heat capacity at constant pressure value associated with the compound `NCCN`
Result string: 173.53
